Each entry below carries its recorded pEC50.
# target.of.assay: T1, muCTGF domains 1 and 2 with human Fc tag (Mus musculus, UniProt P29268)
# T1 construct: purchased Evitria
# assay.details: ELISA binding to CTGF fragments, murine CTGF domains 1 and 2
# recorded.conditions: coated 1 μg/ml, muteins from 1000 nM, read-out: EC Murine CTGF1-2-huFc
# pEC50 is unitless: minus log10 of the molar concentration; print number only

For orientation, consider the following solved cases.
molecule: SEQ ID NO: 7: parent CTGF-binding hNGAL lipocalin mutein (protein, lipocalin mutein) QDSTSDLIPAPPLSKVPLQQNFQDNQFHGKWYVVGLAGNYGLRTDKRPSKMFATIYELKEDKSYDVTSVRFEQERCHYTIRTFVPGSQPGEFTTGSIKSRPGQTSSLVRVVSTNYNQHAMVFFKSVIQNREYFAITLYGRTKELTSELKENFIRFSKSLGLPENHIVFPVPIDQCIDG
measurement: 7.85
//
molecule: SEQ ID NO: 25: parent CTGF-binding hNGAL lipocalin mutein (protein, lipocalin mutein) QDSTSDLIPAPPLSKVPLQQNFQDNQFHGKWYVVGMAGNFRLREDKDPSKMGATIYELKEDKSYNVTQVQFDDKKCLYVIETFVPGSQPGEFTLGAIKSFPGFTSQLVRVVSTNYNQHAMVFFKKVYQNREVFWITLYGRTKELTSELKENFIRFSKSLGLPENHIVFPVPIDQCIDG
measurement: 7.85
//
molecule: SEQ ID NO: 29: parent CTGF-binding hNGAL lipocalin mutein (protein, lipocalin mutein) QDSTSDLIPAPPLSKVPLQQNFQDNQFHGKWYVVGWAGNIKLREDKDPFKMSATIYELKEDKSYNVTEVVFEQKKCHYIIKTFVPGSQPGEFTLGDIKSPPGETSSLVRVVSTNYNQHAMVFFKKVFQNREFFWITLYGRTKELTSELKENFIRFSKSLGLPENHIVFPVPIDQCIDG
measurement: 7.77

Now consider the entry below.
Field request: pEC50 | item: SEQ ID NO: 9: parent CTGF-binding hNGAL lipocalin mutein (protein, lipocalin mutein) QDSTSDLIPAPPLSKVPLQQNFQDNQFHGKWYVVGLAGNKILRIDKQPAKMFATIYELKEDKSYDVTSVRFEARSCSYTIKTFVPGSQPGEFTAGNIKSAPGQTSTLVRVVSTNYNQHAMVFFKHVSQNRETFVITLYGRTKELTSELKENFIRFSKSLGLPENHIVFPVPIDQCIDG
8.24
